Biological target: HDAC6 (Homo sapiens)
Construct: purchased Reaction Biology Corporation (assay run by the CRO)
Sequence (Q9UBN7 1-1215): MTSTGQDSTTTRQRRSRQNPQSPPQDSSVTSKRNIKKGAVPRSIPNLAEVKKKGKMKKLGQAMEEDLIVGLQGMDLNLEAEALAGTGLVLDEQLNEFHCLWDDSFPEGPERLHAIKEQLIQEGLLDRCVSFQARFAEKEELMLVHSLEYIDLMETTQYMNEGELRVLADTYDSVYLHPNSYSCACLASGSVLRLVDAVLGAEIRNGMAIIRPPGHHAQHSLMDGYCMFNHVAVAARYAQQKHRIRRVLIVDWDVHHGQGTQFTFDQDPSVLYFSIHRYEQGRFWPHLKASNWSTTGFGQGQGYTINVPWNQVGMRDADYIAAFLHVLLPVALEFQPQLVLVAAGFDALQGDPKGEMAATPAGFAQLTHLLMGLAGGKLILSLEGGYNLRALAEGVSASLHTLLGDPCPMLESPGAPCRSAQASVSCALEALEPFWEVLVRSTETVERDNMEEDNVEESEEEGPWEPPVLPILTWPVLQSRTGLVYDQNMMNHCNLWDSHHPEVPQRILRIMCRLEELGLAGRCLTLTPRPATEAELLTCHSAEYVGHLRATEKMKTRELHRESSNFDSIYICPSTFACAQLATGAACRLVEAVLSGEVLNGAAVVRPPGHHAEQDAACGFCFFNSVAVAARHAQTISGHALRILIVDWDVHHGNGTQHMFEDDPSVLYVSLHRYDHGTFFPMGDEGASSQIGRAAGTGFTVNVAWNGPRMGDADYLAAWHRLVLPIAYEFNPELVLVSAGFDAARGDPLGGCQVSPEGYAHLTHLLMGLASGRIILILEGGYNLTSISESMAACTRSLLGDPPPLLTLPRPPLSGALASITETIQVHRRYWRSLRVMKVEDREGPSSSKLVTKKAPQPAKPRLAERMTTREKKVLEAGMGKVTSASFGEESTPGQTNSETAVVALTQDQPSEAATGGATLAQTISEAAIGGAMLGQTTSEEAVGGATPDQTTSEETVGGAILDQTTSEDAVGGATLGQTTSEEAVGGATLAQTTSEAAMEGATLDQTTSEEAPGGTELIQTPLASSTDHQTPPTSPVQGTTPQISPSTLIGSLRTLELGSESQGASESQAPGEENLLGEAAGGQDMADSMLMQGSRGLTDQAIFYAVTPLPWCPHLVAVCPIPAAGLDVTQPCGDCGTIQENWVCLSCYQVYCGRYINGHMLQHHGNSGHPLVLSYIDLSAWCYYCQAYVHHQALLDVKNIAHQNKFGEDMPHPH
Test: HDAC6 inhibition, full IC50 measurement (Reaction Biology; fluorogenic p53 peptide RHKK(Ac)AMC)
Type: biochemical
Settings: Conc. 1.11E-06 M, t2
Peptide text beside a SMILES is read from it.
Form field: HDAC6 activity raw data (signal) (one value per entry).

{"compound": "NCCCC[C@H]1NC(=O)[C@H](CCC(N)=O)NC(=O)[C@H](CCC(=O)O)NC(=O)[C@@H]2CCCN2C(=O)[C@H](CC(N)=O)NC(=O)[C@H](CCCCCS)NC(=O)CNC(=O)[C@H](Cc2c[nH]c3ccccc23)NC1=O [des1.1.1, SHA-Asn-Pro-Glu-Gln-dLys-Trp-Gly] (HELM PEPTIDE1{E.Q.[dK].W.G.[O=C([C@H](CCCCCS)N[*:1])[*:2]].N.P}$PEPTIDE1,PEPTIDE1,1:R1-8:R2$$$V2.0)", "HDAC6 activity raw data (signal)": 22362}
{"compound": "CCCC[C@H]1NC(=O)[C@H](Cc2ccccc2)NC(=O)[C@H](CCCCCS)NC(=O)[C@@H](CCCNC(=N)N)NC(=O)[C@H](CC(=O)O)NC(=O)[C@@H](CO)NC(=O)[C@@H](C)NC(=O)[C@H](CCCCN)NC1=O [des4.3.1, SHA-Phe-dNle-Lys-dAla-dSer-Asp-dArg] (HELM PEPTIDE1{D.[dR].[O=C([C@H](CCCCCS)N[*:1])[*:2]].F.[CCCC[C@@H](N[*:1])C(=O)[*:2]].K.[dA].[dS]}$PEPTIDE1,PEPTIDE1,1:R1-8:R2$$$V2.0)", "HDAC6 activity raw data (signal)": 17466}
{"compound": "C[C@H](O)[C@H]1NC(=O)[C@H](Cc2c[nH]c3ccccc23)NC(=O)[C@H](CCCCCS)NC(=O)[C@H](CCCCN)NC(=O)[C@@H](CC(=O)O)NC(=O)[C@@H](CCCCN)NC(=O)[C@@H](CO)NC(=O)[C@H](CC(N)=O)NC(=O)[C@H](CC(=O)O)NC1=O [des2.1.0, SHA-Trp-dThr-Asp-Asn-dSer-dLys-dAsp-Lys] (HELM PEPTIDE1{D.N.[dS].[dK].[dD].K.[O=C([C@H](CCCCCS)N[*:1])[*:2]].W.[dT]}$PEPTIDE1,PEPTIDE1,1:R1-9:R2$$$V2.0)", "HDAC6 activity raw data (signal)": 21097}
{"compound": "CCCC[C@H]1NC(=O)[C@H](CC(=O)O)NC(=O)[C@@H](CO)NC(=O)[C@@H](C)NC(=O)[C@H](CCCCN)NC(=O)[C@@H](CCCCN)NC(=O)[C@H](Cc2ccccc2)NC(=O)[C@H](CCCCCS)NC1=O [des4.3.1.2, SHA-Phe-dLys-Lys-dAla-dSer-Asp-dNle] (HELM PEPTIDE1{D.[CCCC[C@@H](N[*:1])C(=O)[*:2]].[O=C([C@H](CCCCCS)N[*:1])[*:2]].F.[dK].K.[dA].[dS]}$PEPTIDE1,PEPTIDE1,1:R1-8:R2$$$V2.0)", "HDAC6 activity raw data (signal)": 1078978}
{"compound": "CSCC[C@H]1NC(=O)[C@@H](CO)NC(=O)[C@H](CC(N)=O)NC(=O)[C@H](CC(=O)O)NC(=O)[C@@H]([C@H](C)O)NC(=O)[C@H](Cc2c[nH]c3ccccc23)NC(=O)[C@H](CCCCCS)NC(=O)[C@H](CCCCN)NC(=O)[C@@H](CC(=O)O)NC1=O [des2.1.1, SHA-Trp-dThr-Asp-Asn-dSer-dMet-dAsp-Lys] (HELM PEPTIDE1{D.N.[dS].[dM].[dD].K.[O=C([C@H](CCCCCS)N[*:1])[*:2]].W.[dT]}$PEPTIDE1,PEPTIDE1,1:R1-9:R2$$$V2.0)", "HDAC6 activity raw data (signal)": 10889}
